Quick note: these are pIC50 numbers for system: Genome polyprotein (West Nile virus, UniProt P06935)
Sequence (P06935 1371-1501 limits assumed): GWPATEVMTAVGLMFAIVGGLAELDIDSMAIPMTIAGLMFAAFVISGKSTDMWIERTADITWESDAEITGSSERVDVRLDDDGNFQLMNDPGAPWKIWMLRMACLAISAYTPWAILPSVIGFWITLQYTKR
Sequence (P06935 1502-2120 limits assumed): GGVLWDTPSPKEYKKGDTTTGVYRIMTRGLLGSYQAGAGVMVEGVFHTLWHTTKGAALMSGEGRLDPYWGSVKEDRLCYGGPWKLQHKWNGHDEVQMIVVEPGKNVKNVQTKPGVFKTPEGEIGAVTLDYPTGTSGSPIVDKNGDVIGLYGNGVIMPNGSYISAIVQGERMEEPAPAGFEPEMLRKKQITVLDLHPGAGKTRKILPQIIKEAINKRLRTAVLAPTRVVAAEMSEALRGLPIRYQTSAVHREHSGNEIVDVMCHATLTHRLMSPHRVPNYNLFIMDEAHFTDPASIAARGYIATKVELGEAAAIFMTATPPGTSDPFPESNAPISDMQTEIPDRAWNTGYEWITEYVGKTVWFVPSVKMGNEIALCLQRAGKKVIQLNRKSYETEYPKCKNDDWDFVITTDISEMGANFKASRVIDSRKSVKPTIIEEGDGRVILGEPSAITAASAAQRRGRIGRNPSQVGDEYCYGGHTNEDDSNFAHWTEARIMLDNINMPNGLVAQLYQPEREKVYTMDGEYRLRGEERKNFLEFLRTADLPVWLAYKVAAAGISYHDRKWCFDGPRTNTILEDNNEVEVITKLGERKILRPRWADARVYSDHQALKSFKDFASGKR
// pIC50: -log10(molar conc.)

Qu. What measured pIC50 goes with Cc1cc(OC(=O)c2c(F)cccc2F)n(Cc2ccccc2)n1 ?
Ans. 5.09

Qu. What measured pIC50 goes with Cc1cc(NC(=O)c2ccccc2)n(-c2ccccc2)n1 ?
Ans. 4.80

* * *

Hi there, I'd appreciate the recorded t1/2 for every entry that follows.
Test: Aqueous stability assessed as half life at pH 8.0 buffer
Assay type: physicochemical
Write down the numeric answer in h and omit the unit.

Qu. What measured t1/2 goes with COc1ccc(S(=O)(=O)n2nc(OC(=O)c3c(F)ccc(C)c3F)cc2N)cc1 ?
Ans. 2.5

Qu. What measured t1/2 goes with COc1ccc(Cn2nc(C)cc2OC(=O)c2c(F)cccc2F)cc1 ?
Ans. 1.5

Qu. What measured t1/2 goes with COc1ccc(S(=O)(=O)n2nc(OC(=O)c3ccc(F)cc3F)cc2N)cc1 ?
Ans. 7.5

Qu. What measured t1/2 goes with COc1ccc(S(=O)(=O)n2nc(OC(=O)c3c(F)ccc(F)c3F)cc2N)cc1 ?
Ans. 1.5

* * *

Hi there, I'd appreciate the recorded pIC50 for every entry that follows.
pIC50: −log10 of the molar value.

Qu. Recall the recorded pIC50 for COc1ccc(S(=O)(=O)n2nc(OC(=O)c3c(Cl)cccc3Cl)cc2N)cc1 with Genome polyprotein (West Nile virus, UniProt P06935) and state it.
Ans. < 4.00

Qu. Recall the recorded pIC50 for COc1ccc(S(=O)(=O)n2nc(OC(=O)c3ccccc3OC)cc2N)cc1 with Genome polyprotein (West Nile virus, UniProt P06935) and state it.
Ans. < 4.00

Qu. Recall the recorded pIC50 for COc1ccc(Cn2nc(C)cc2CC(O)c2c(F)cccc2F)cc1 (stereo not drawn) with Genome polyprotein (West Nile virus, UniProt P06935) and state it.
Ans. < 4.00
